B1: Formin-binding protein 4, residues 200 to 261; numbered along this chain, Q8N3X1 (parent)
chain: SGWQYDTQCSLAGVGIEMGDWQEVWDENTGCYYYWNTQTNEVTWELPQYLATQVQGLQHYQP

Variants of: B1
Assay: abundance fitness (aPCA) (normalised: wild type 0, dead -1); higher = more abundant; growth selection in yeast, the domain comes from the species named
Conditions: Homo sapiens

Variant Spec: L11F
abundance fitness: -0.714

Variant Spec: W44T
abundance fitness: -0.077

Variant Spec: L11E
abundance fitness: -0.483

Variant Spec: G15A
abundance fitness: 0.273

Variant Spec: D6H
abundance fitness: -0.282

Data origin, for the record: the Human Domainome abundance scans (Beltran et al. 2025)
